# Test system: Botrytis cinerae
# Assay Protocol: Fungicidal activity against cucumber gray mold rot (CGM) disease
# Assay type: in vivo
# Recorded Conditions: 50 ppm, control value
# Description: Botrytis cinerae, which was isolated from cucumber infected thereby, was inoculated on a PDA agar medium and cultured under a 12L/12D cycle at 25° C. for 15 days to form spore. The spores were scraped, filtered through a gauze and then suspended in potato dextrose liquid medium at a concentration of 1×10^6 spore/ml. The spore suspension was sprayed on a cucumber plant having one leaf. […] L.A. on a leaf was measured to calculate an C.V.
Measurement Kind: C. V. (%) CGM

> print(dat)
                                 mol.smiles            target  measured.result
1  CCOc1ccc(C(=C(F)Oc2cccc(OCc3ccccc3C(=NOC)C(=O)NC)c2)C(F)(F)F)cc1  Botrytis cinerae                0
2  CON=C(C(=O)OC)c1ccccc1COc1cccc(OC(F)=Cc2ccc(C)cc2)c1  Botrytis cinerae               27
3  COC=C(C(=O)OC)c1ccccc1COc1cccc(OC(F)=C(c2cccs2)C(F)(F)F)c1  Botrytis cinerae                0
4  CNC(=O)C(=COC)c1ccccc1COc1cccc(OC(F)=C(c2cccc(OC)c2)C(F)(F)F)c1  Botrytis cinerae                0
5  COC=C(C(=O)OC)c1ccccc1COc1cccc(OC(F)=Cc2cccc(F)c2)c1  Botrytis cinerae                0
6  CNC(=O)C(=NOC)c1ccccc1COc1cccc(OC(F)=C(c2ccc(OC)cc2)C(F)(F)F)c1  Botrytis cinerae               11
